# Test system: RS4; 11 leukaemia tumour line
# methodSummary: In vitro cytotoxicity, Microculture Tetrazolium Assay (MTT)
# Type: cell-based
# measurementContext: Homo sapiens, RS4-11, 48 h, 11 cells, 48 hours exposure
observationType: log10(IC50) (log10 of the value in nM)
Units before log transform: nM; reported quantity: IC50; transform: log10.

Here is how some compounds turned out for log10(IC50).
smilesInput | log10(IC50)
Cc1c2cc(n1C)-c1cc(F)ccc1C(=O)N1CCc3c(cccc3OCCc3c(cnn3C)N(c3ccc(O)cc3)C2=O)C1 | 1.91
Cc1c2cc(n1C)-c1cc(Cl)ccc1C(=O)N1CCc3c(cccc3OCCCCCCOc3ncc(cn3)N(c3ccc(O)cc3)C2=O)C1 | 2.17
Cc1c2cc(n1C)-c1cc(Cl)ccc1C(=O)N1CCc3c(cccc3OCCCOc3cccc(c3)N(c3ccc(O)cc3)C2=O)C1 | 2.25

// query log10(IC50) lookup needed for `Cc1c2cc(n1C)-c1cc(Cl)ccc1C(=O)N1CCc3c(cccc3OCCCc3c(cnn3C)N(c3ccc(O)cc3)C2=O)C1` , thanks.
// result 1.42

// query log10(IC50) lookup needed for `Cc1c2cc(n1C)-c1cc(Cl)ccc1C(=O)N1CCc3c(cccc3OCCOc3c(cnn3C)N(c3ccc(O)cc3)C2=O)C1` , thanks.
// result 2.12

// query log10(IC50) lookup needed for `Cc1c2cc(n1C)-c1cc(F)ccc1C(=O)N1CCc3c(cccc3OCCOCCOc3ncc(cn3)N(c3ccc(O)cc3)C2=O)C1` , thanks.
// result 1.70

// query log10(IC50) lookup needed for `Cc1c2cc(n1C)-c1cc(Cl)ccc1C(=O)N1CCc3c(cccc3OCCc3c(cnn3C)N(c3ccc(O)cc3)C2=O)C1` , thanks.
// result 1.73

// query log10(IC50) lookup needed for `Cc1c2cc(n1C)-c1cc(Cl)ccc1C(=O)N1CCc3c(cccc3OCCCCn3cc(cn3)N(c3ccc(O)cc3)C2=O)C1` , thanks.
// result 1.06

----------
# Test system: RS4; 11 leukaemia tumour line
# methodSummary: In vitro cytotoxicity, Microculture Tetrazolium Assay (MTT)
# Type: cell-based
# measurementContext: Homo sapiens, RS4-11, 48 h, 11 cells, 48 hours exposure
observationType: IC50
Phrase the answer as number then unit, nothing more needed.

// query IC50 lookup needed for Cc1c2cc(n1C)-c1cc(Cl)ccc1C(=O)N1CCc3c(cccc3OCCCCOc3ncc(cn3)N(c3ccc(O)cc3)C2=O)C1 [Example 41] , thanks.
// result 197 nM

// query IC50 lookup needed for Cc1c2cc(n1C)-c1cc(Cl)ccc1C(=O)N1CCc3c(cccc3OCCOCCN(c3ccc(O)cc3)C2=O)C1 [Example 34] , thanks.
// result 1240 nM

// query IC50 lookup needed for Cc1c2cc(n1C)-c1cc(Cl)ccc1C(=O)N1CCc3c(cccc3OCCCCn3c(C#N)cc(c3C)N(c3ccc(O)cc3)C2=O)C1 [Example 7] , thanks.
// result 4.94 nM

// query IC50 lookup needed for Cc1c2cc(n1C)-c1cc(Cl)ccc1C(=O)N1CCc3c(cccc3OCCn3c(C)ncc(c3=O)N(c3ccc(O)cc3)C2=O)C1 [Example 31] , thanks.
// result 1330 nM

// query IC50 lookup needed for Cc1c2cc(n1C)-c1cc(Cl)ccc1C(=O)N1CCc3c(cccc3OCCOc3cc(C#N)cc(c3)N(c3ccc(O)cc3)C2=O)C1 [Example 4] , thanks.
// result 7.73 nM

// query IC50 lookup needed for Cc1c2cc(n1C)-c1cc(Cl)ccc1C(=O)N1Cc3cccc(c3C1)OCCc1c(cnn1C)N(c1ccc(O)cc1)C2=O [Example 24] , thanks.
// result 106 nM
